System: CYP3A4
Test details: CYP induction (enzyme activity) in cryopreserved human hepatocytes, CYP3A4
Type: in vitro ADME
Cond: human, plated cryopreserved human hepatocytes, donor three, 30 µM
Result type: fold induction at 72 h, 30 µM
Form rule: numeric answer, no unit written next to it.

Here CCOC(=O)c1ncn2c1CN(C)C(=O)c1cc(F)ccc1-2 [Flumazenil, flumazenil, reference compound] was tested on CYP3A4, and its fold induction at 72 h, 30 µM came to 1.23

* * *

Test details: Single-dose PK and bioavailability of ZB716 in rats
Assay type: in vivo
Cond: male, Sprague Dawley, rat, plasma; single dose, PO 400 mg/kg/day, M
Result type: AUC(0-t) (ng·h/mL)
Respond numerically; units are ng·h/mL and should not be typed.

Query C[C@]12CC[C@@H]3c4ccc(B(O)O)cc4C[C@@H](CCCCCCCCC[S+]([O-])CCCC(F)(F)C(F)(F)F)[C@H]3[C@@H]1CC[C@@H]2O (stereo partly shown) yields AUC(0-t) of 32600

* * *

Test details: Single-dose PK and bioavailability of ZB716 in rats
Assay type: in vivo
Cond: female, Sprague Dawley, rat, plasma; PO 6 mg/kg/day vs IV 2 mg/kg/day, F
Result type: bioavailability (%)
Respond numerically; units are % and should not be typed.

Query C[C@]12CC[C@@H]3c4ccc(B(O)O)cc4C[C@@H](CCCCCCCCC[S+]([O-])CCCC(F)(F)C(F)(F)F)[C@H]3[C@@H]1CC[C@@H]2O (stereo partly shown) yields bioavailability of 5.98

* * *

System name: CYP1A2 (Homo sapiens)
Sequence (P05177 whole entry): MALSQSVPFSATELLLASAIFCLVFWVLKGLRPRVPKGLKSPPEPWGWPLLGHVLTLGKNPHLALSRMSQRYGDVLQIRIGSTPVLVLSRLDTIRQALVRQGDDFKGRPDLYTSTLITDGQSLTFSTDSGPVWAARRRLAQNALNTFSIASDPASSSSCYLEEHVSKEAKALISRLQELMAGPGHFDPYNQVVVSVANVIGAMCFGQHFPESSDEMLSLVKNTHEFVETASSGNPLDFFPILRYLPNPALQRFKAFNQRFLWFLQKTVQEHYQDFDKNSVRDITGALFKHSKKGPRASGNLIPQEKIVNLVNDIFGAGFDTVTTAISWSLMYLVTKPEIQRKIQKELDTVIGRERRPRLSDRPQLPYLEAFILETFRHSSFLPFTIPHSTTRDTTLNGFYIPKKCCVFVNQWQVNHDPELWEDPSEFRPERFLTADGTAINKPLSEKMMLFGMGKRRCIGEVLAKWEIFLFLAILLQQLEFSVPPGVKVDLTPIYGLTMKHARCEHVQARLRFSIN
pIC50: −log10 of the molar value.
Result type: pIC50

Query C[C@]12CC[C@@H]3c4ccc(B(O)O)cc4C[C@@H](CCCCCCCCC[S+]([O-])CCCC(F)(F)C(F)(F)F)[C@H]3[C@@H]1CC[C@@H]2O (stereo partly shown) yields pIC50 of < 4.82

* * *

Test details: Metabolic stability in dog hepatocytes
Type: in vitro ADME
Cond: read-out: Estimated In Vitro t1/2
Result type: half-life at 1 μM (min)
Respond numerically; units are min and should not be typed.

Query C[C@]12CC[C@@H]3c4ccc(B(O)O)cc4C[C@@H](CCCCCCCCC[S+]([O-])CCCC(F)(F)C(F)(F)F)[C@H]3[C@@H]1CC[C@@H]2O (stereo partly shown) yields half-life at 1 μM of 26.7

* * *

Test details: 4-week repeat-dose toxicity/TK study in rats
Format: in vivo, Sprague Dawley rats
Cond: male, Sprague Dawley (Crl: CD (SD)), rat, plasma, po, 25 mg/kg/day, day 28, PO 25 mg/kg/day, Male
Experimental: The PK of ZB716 was investigated in a 4-week repeat-dose toxicity study in rats. […] The plasma concentration of ZB716 was measured at various times through to 24 h post-dose on days 1 and 28. […] Five microliters of diluted supernatant was injected into the LC–MS/MS system (Shimadzu LC30AD HPLC system with a SynergiTM 4 μm Fusion-RP 80 Å (50 × 2 mm) column using gradient elution and a Triple Quad 5500 mass spectrometer) for quantitative analysis. […]
Result type: Tmax
Quote the value and follow it with the unit of measurement.

Query C[C@]12CC[C@@H]3c4ccc(B(O)O)cc4C[C@@H](CCCCCCCCC[S+]([O-])CCCC(F)(F)C(F)(F)F)[C@H]3[C@@H]1CC[C@@H]2O (stereo partly shown) yields Tmax of 30 min

Source of measurements: paper PMC8400955
